- Test system: EKVX NSCLC
- MEASUREMENT DESCRIPTION: NCI tumour cell line growth inhibition, 48 h
REPORTED PROPERTY: TGI (µM)
Provide only the numeric value, understood in µM.

# get_value(readout='TGI', item= COc1ccc(-c2cc(C(=O)Nc3cc(C(F)(F)F)cc(C(F)(F)F)c3)c3ccccc3n2)cc1 )
27.4

Here is the next compound: CO[C@H]1O[C@@H]2CO[C@@H](c3ccccc3)O[C@H]2[C@@H]2C/C=C\CCC[C@@]12O
45.8

Here is the next compound: C=C[C@@]1(O)CCCC[C@@H]1CC(Sc1ccccc1)Sc1ccccc1
31.1

Here is the next compound: O=C(Nc1ccc(-n2ccc3c(NC(=O)c4ccccc4)ncnc32)cc1)c1cccc(C(F)(F)F)c1
22.7

====

- Test system: MOLT-4 leukemia
- MEASUREMENT DESCRIPTION: NCI tumour cell line growth inhibition, 48 h
REPORTED PROPERTY: TGI

CN(C)c1ccc(/C=C/C(=O)N[C@@H]2C(=O)N3[C@@H]2SC(C)(C)[C@@H]3C(=O)O)cc1 | > 100 µM
C#CCNC(=O)NCCCCC(NC(=O)OCc1ccccc1)C(=O)OCc1ccccc1 (centres undefined) | 51.9 µM
CC1(C)CC2(C)CC1CC2(O)c1ccccc1 (centres undefined) | > 100 µM

For the next question, use this compound.
# get_value(readout='TGI', item= CC(C)=CCOc1cc(NC(=S)c2ccsc2C)ccc1Cl )
> 100 µM

====

- Tested on: U251 CNS
- MEASUREMENT DESCRIPTION: NCI tumour cell line growth inhibition, 48 h
Recorded measurements of TGI, one per entry

Some solved cases for reference:
COc1ccc(Nc2nc3ccccc3c3occc23)cc1 | 11.7 µM
Cn1c([C@H](C#N)C(=O)c2cc(O)ccc2[N+](=O)[O-])nc2ccccc21 | > 100 µM
CCCCCCCC(=O)OCCCC1[C@]2(C)CC[C@@]3(C)C([C@H](C)CCC=C(C)C)CC[C@]3(C)C2CC[C@]12OC2(C)C (stereo partly specified) | 93.3 µM
CCc1cccc(C)c1NC(=O)CCc1nnc2s/c(=C\c3cccc4ccccc34)c(=O)n12 | > 100 µM

Provide value of TGI for this record tested with U251 CNS: Cc1cc(C)c2c(n1)sc1c(N)ncnc12
> 25 µM

Here is the next compound: CCOc1ccc(/C(C=O)=C(\Cl)c2ccc(OC)cc2)cc1
> 100 µM

Here is the next compound: O=Nn1c2ccccc2c2cc([N+](=O)[O-])ccc21
33.1 µM

Here is the next compound: Cc1ccc(Oc2ccccc2N)cc1
22.1 µM

Here is the next compound: CN(C(=O)c1ccc2c(c1)sc1c(=O)n(C)c3ccccc3c12)c1ccccc1
> 100 µM

Here is the next compound: Cc1ccc(-c2cc(O)c3nc4ccccc4n3c2)cc1
> 100 µM

Here is the next compound: COc1ccccc1N=Nc1c(O)c(S(=O)(=O)O)cc2cc(S(=O)(=O)O)ccc12
> 100 µM

====

- System: DMS 114 small cell lung
- MEASUREMENT DESCRIPTION: NCI tumour cell line growth inhibition, 48 h
REPORTED PROPERTY: TGI (µM)
Provide only the numeric value, understood in µM.

CC1=C2C(=CC(C)(C)[C@@H]2O)C(=O)[C@](C)(O)C12CC2 | 0.101

For the next question, use this molecule.
# get_value(readout='TGI', item= Cc1cc(NC(=O)C2C3C=CC(O3)C2C(=O)O)no1 (stereo not given) )
29.9

====

- System: DU-145 prostate
- MEASUREMENT DESCRIPTION: NCI tumour cell line growth inhibition, 48 h
Recorded measurements of TGI, one per entry

CCOc1ccc(/C(C=O)=C(\Cl)c2ccc(OC)cc2)cc1 | > 100 µM
Cc1ccc(-c2nnc(CCCCCCCCc3nnc(-c4ccc(C)cc4O)n3N)n2N)c(O)c1 | > 100 µM
Cc1ccc(NC2=NCCO2)c2c1CCC2 | > 100 µM
COC(=O)C(=O)C(C(=O)C(=O)Nc1cccc([N+](=O)[O-])c1)c1nc2ccc(Cl)cc2[nH]c1=O (stereo unspecified) | > 100 µM
NC(Cc1c[nH]c2cc([N+](=O)[O-])ccc12)C(=O)O (stereo unspecified) | > 100 µM

Provide value of TGI for this record tested with DU-145 prostate: C=C1C(=O)O[C@H]2[C@H]1CC/C(COC(=O)NCc1ccc(OC)cc1)=C\CC[C@@]1(C)O[C@@H]21
2.95 µM

Here is the next compound: CO[C@H]1O[C@@H]2CO[C@@H](c3ccccc3)O[C@H]2[C@@H]2C/C=C\CCC[C@@]12O
51.8 µM

Here is the next compound: CCCC1C(=O)Nc2cccc3ncn(c23)C1=O (stereo unspecified)
> 100 µM

Here is the next compound: O=C(Sc1c(-c2ccccc2)c(=O)n(-c2ccccc2)c(=S)n1-c1ccccc1)c1cccs1
> 100 µM

Here is the next compound: O=[N+]([O-])c1cccc(-c2nc(-c3ccccc3)c(-c3ccccc3)[nH]2)c1
> 100 µM

Here is the next compound: COC(=O)C12CC(NC(=O)c3csc([C@@H](C[C@H](C(C)C)N(C)C(=O)[C@@H](NC(=O)[C@H]4CCCCN4C)C4CC4)OC(C)=O)n3)(C1)C2
> 16.7 µM

====

- Test system: U251 CNS
Hi there, use one of these labels in your reply, thanks! t = active, f = inactive

Recorded call for CCC(C)Oc1nc2c(c(=O)n(C)c(=O)n2C)n1C (stereo unspecified) ?
f

Here is the next molecule: COc1ccc(NC(=O)/C=C(C)/C=C/C=C(C)/C=C/C2=C(C)CCCC2(C)C)cc1
f

Here is the next molecule: CN1CCN(Cc2ccc(NC(=O)c3cncc(C#Cc4cnc(N)cc4C#N)c3)cc2C(F)(F)F)CC1
f

Here is the next molecule: COc1cc2ncnc(-n3ncc4cc(NC(=O)Nc5ccc(Cl)c(Cl)c5)ccc43)c2cc1OC
f

Here is the next molecule: CC[C@@]1(OC(=O)CN)C(=O)OCc2c1cc1n(c2=O)Cc2c-1nc1cc3c(cc1c2CCl)OCO3
t

Here is the next molecule: Cc1cc(Nc2nc(C(=O)Nc3ccccc3)nc3ccccc23)n[nH]1
f

Here is the next molecule: C=C/C(C)=C/C[C@]1(C)[C@H](C)[C@@H](OC(=O)CCC)[C@H](O)[C@@]23C(=C[C@H](OC)C[C@@H]12)[C@@H](OC(=O)CCC)O[C@H]3OC(C)=O
f

Here is the next molecule: COc1ccc(/C=C/C(=O)c2ccc(-n3cc(CN4CCN(c5cc6c(cc5F)c(=O)c(C(=O)O)cn6C5CC5)CC4)nn3)cc2)cc1OC
f

Here is the next molecule: CSc1ncc(Br)c(Sc2nc(N)nc3nc[nH]c23)n1
f

Here is the next molecule: O=c1c2cc(-c3ccccc3)sc2ncn1Cc1ccc(Cl)c(Cl)c1
f

Here is the next molecule: O=S1(=O)N(Cc2ccccc2)[C@@H](Cc2ccccc2)[C@H](O)[C@H](O)[C@H](Cc2ccccc2)N1Cc1ccccc1
f

====

- Tested on: KM20L2 colon
- MEASUREMENT DESCRIPTION: NCI tumour cell line growth inhibition, 48 h
Recorded measurements of TGI, one per entry

# get_value(readout='TGI', item= COc1cc(C2C(Cl)C(=O)N2NC(=O)c2ccc(NC(C)=O)cc2)ccc1O (configuration not stated) )
> 100 µM

Here is the next compound: CN(C)CCNC(=O)c1cccc2cc3cc(O)ccc3nc12
8.13 µM

Here is the next compound: O=C1OC(c2ccccc2)=N/C1=C\c1ccc(Oc2ccc(Cl)c(Cl)c2)cc1
> 100 µM

Here is the next compound: Cc1ccc(S(=O)(=O)N=NC=C2c3ccccc3N(O)c3ccccc32)cc1
12.4 µM

Here is the next compound: Cc1cc(NC(=O)C2C3C=CC(O3)C2C(=O)O)no1 (configuration not stated)
26.6 µM

====

- Tested on: HCT-15 colon
- MEASUREMENT DESCRIPTION: NCI tumour cell line growth inhibition, 48 h
REPORTED PROPERTY: TGI

Some solved cases for reference:
Cc1c2c(cc3c1C(=O)C(=O)C1=C3OC[C@@H]1C)C(C)(C)CCC2 | 27.6 µM
O=c1nc(-c2ccccc2)cc(CC(O)c2ccc(Cl)c(Cl)c2)[nH]1 (stereo unspecified) | > 100 µM
CCc1cccc(C)c1NC(=O)CCc1nnc2s/c(=C\c3cccc4ccccc34)c(=O)n12 | > 100 µM
C#CCNC(=O)NCCCCC(NC(=O)OCc1ccccc1)C(=O)OCc1ccccc1 (stereo unspecified) | > 100 µM
Cn1c(=O)c2[nH]c(SCCN3CCOCC3)nc2n(C)c1=S | > 100 µM

Provide value of TGI for this record tested with HCT-15 colon: Cc1cccc2c1c1ccc3c(c1n2C)C(=O)C=CC3=O
10.5 µM

Here is the next molecule: CCCn1cnc2c(SCC(=O)O)nc(N)nc21
> 100 µM
